# tgt: Receptor-type tyrosine-protein kinase FLT3 (Homo sapiens)
# Sequence (P36888 whole entry): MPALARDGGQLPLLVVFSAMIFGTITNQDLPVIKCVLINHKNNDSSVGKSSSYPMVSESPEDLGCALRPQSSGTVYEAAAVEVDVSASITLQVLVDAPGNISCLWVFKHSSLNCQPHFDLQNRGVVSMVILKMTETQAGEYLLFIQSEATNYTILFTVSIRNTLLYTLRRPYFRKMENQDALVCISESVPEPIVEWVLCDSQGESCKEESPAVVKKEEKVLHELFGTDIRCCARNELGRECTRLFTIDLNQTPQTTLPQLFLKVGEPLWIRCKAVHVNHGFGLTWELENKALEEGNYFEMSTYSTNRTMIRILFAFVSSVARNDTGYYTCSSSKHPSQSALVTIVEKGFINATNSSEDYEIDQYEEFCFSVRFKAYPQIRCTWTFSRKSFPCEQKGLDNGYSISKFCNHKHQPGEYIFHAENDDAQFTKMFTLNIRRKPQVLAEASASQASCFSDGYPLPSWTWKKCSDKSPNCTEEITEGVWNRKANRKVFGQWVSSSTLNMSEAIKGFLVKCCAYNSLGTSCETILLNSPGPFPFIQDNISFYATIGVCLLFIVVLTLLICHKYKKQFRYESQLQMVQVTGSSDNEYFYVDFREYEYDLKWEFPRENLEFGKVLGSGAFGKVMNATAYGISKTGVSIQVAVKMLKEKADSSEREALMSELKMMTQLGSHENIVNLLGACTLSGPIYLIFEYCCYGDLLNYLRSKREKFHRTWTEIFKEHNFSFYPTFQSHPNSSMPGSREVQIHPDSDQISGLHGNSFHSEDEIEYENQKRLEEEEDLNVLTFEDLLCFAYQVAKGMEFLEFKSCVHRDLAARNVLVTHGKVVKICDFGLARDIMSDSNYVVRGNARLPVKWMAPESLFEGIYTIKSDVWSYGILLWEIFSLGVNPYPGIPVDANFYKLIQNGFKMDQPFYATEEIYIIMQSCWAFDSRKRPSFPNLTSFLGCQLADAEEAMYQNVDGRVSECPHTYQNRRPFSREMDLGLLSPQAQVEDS

>  <cpdSmiles>
COc1cc(N2CCOCC2)ccc1NC(=O)c1cnn2ccc(N3CCC[C@@H](N)C3)nc12

>  <unitAnnotation>
nM

>  <IC50>
3.5

$$$$
>  <cpdSmiles>
COc1cc(N2CCC(N3CCOCC3)CC2)ccc1NC(=O)c1cnn2ccc(N[C@@H]3CCCNC3)nc12

>  <unitAnnotation>
nM

>  <IC50>
2.9

$$$$
>  <cpdSmiles>
N#Cc1cc(N2CCOCC2)ccc1NC(=O)c1cnn2ccc(N[C@@H]3CCCNC3)nc12

>  <unitAnnotation>
nM

>  <IC50>
2.6

$$$$
>  <cpdSmiles>
COc1cc(N2CCCCC2)ccc1NC(=O)c1cnn2ccc(N[C@@H]3CCCNC3)nc12

>  <unitAnnotation>
nM

>  <IC50>
8

$$$$

====

Item-by-item account of IC50
# tgt: Receptor-type tyrosine-protein kinase FLT3 (Homo sapiens, UniProt P36888, ITD)

>  <cpdSmiles>
COc1cc(N2CCOCC2)ccc1NC(=O)c1cnn2ccc(N3CCC[C@@H](N)C3)nc12

>  <tgt>
Receptor-type tyrosine-protein kinase FLT3 (Homo sapiens, UniProt P36888, ITD)

>  <measurementQualifier>
=

>  <IC50 [nM]>
1.3

$$$$
>  <cpdSmiles>
CSc1cc(N2CCOCC2)ccc1NC(=O)c1cnn2ccc(N[C@@H]3CCCNC3)nc12

>  <tgt>
Receptor-type tyrosine-protein kinase FLT3 (Homo sapiens, UniProt P36888, ITD)

>  <measurementQualifier>
=

>  <IC50 [nM]>
1.6

$$$$
>  <cpdSmiles>
O=C(Nc1ccc(N2CCOCC2)cc1C(F)(F)F)c1cnn2ccc(NC3CCCCC3)nc12

>  <tgt>
Receptor-type tyrosine-protein kinase FLT3 (Homo sapiens, UniProt P36888, ITD)

>  <measurementQualifier>
>

>  <IC50 [nM]>
1000

$$$$
>  <cpdSmiles>
O=C(Nc1ccc(N2CCOCC2)cc1Br)c1cnn2ccc(N[C@@H]3CCCNC3)nc12

>  <tgt>
Receptor-type tyrosine-protein kinase FLT3 (Homo sapiens, UniProt P36888, ITD)

>  <measurementQualifier>
=

>  <IC50 [nM]>
0.8

$$$$
>  <cpdSmiles>
O=C(Nc1ccc(N2CCOCC2)cc1C(F)(F)F)c1cnn2ccc(NC3CNC3)nc12

>  <tgt>
Receptor-type tyrosine-protein kinase FLT3 (Homo sapiens, UniProt P36888, ITD)

>  <measurementQualifier>
=

>  <IC50 [nM]>
30.7

$$$$
>  <cpdSmiles>
NC(=O)c1cc(N2CCOCC2)ccc1NC(=O)c1cnn2ccc(N[C@@H]3CCCNC3)nc12

>  <tgt>
Receptor-type tyrosine-protein kinase FLT3 (Homo sapiens, UniProt P36888, ITD)

>  <measurementQualifier>
=

>  <IC50 [nM]>
7.2

$$$$
>  <cpdSmiles>
CN1CCC[C@@H](Nc2ccn3ncc(C(=O)Nc4ccc(N5CCOCC5)cc4C(F)(F)F)c3n2)C1

>  <tgt>
Receptor-type tyrosine-protein kinase FLT3 (Homo sapiens, UniProt P36888, ITD)

>  <measurementQualifier>
=

>  <IC50 [nM]>
181

$$$$
>  <cpdSmiles>
O=C(Nc1ccc(N2CCOCC2)cc1F)c1cnn2ccc(N[C@@H]3CCCNC3)nc12

>  <tgt>
Receptor-type tyrosine-protein kinase FLT3 (Homo sapiens, UniProt P36888, ITD)

>  <measurementQualifier>
=

>  <IC50 [nM]>
110

$$$$
>  <cpdSmiles>
O=C(Nc1ccc(N2CCOCC2)cc1C(F)(F)F)c1cnn2ccc(N[C@@H]3CCCCNC3)nc12

>  <tgt>
Receptor-type tyrosine-protein kinase FLT3 (Homo sapiens, UniProt P36888, ITD)

>  <measurementQualifier>
=

>  <IC50 [nM]>
0.5

$$$$
